experiment: NCI Yeast Anticancer Drug Screen. Data for the sgs1 mgt1 strain (AID 161);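 note: 0% = growth of cultures given vehicle only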; conditions: S. cerevisiae sgs1 mgt1 strain, at 5.0 µM (retest, dose inferred, filed as 0.5), hits give high values
This is part of a sample that, as a whole, favours compounds with a hit. Of some 79,000 tested, about 15% had one in any assay. Active and inactive are the calls of the source. Cut-off read from the data, not from the text of the source: active = growth inhibition above about 70%; inactive = the rest.
Reported growth inhibition values for the following molecules.

OCC(O)C(O)C(O)C(/C=N/Nc1ccccc1)=N/Nc1ccccc1 (stereo not given) ... 2% (inactive)
CCN(CCO)CCNc1ccc(C)c2sc3ccccc3c(=O)c12 ... 9% (inactive)
COC(=O)C1c2cc3c(cc2C(OC2OC(C)C(OC)C(C)(OC)C2OC)CC1(C)O)C(=O)c1c(O)cc2c(c1C3=O)OC1OC2(C)C(O)C([N+](C)(C)[O-])C1O (stereo not given) ... -2% (inactive)
CCN(CC)c1ccc(C(=C2C=CC(=[N+](CC)CC)C=C2)c2ccc(N(CC)CC)cc2)cc1 ... 98% (active)

Name the recorded growth inhibition for C=CCc1c2c(ccc(=O)c1O)-c1c(cc(OC)c(OC)c1OC)CCC2NC(C)=O (stereo not given) . -20% (inactive)

Where these numbers come from: PubChem BioAssay (NCI)
